Data credit: PubChem BioAssay

- protocol.description: viability loss with induced miR-34 in A549 – imaging, A549 dox-inducible miR-34, nuclei and caspase counts, primary screen (AID 1347080); note: test concentration not given here
- protocol.conditions: A549 miR-34 inducible, Hoechst nuclei count, 48 h; measured here: total cells with miR-34 induction; stronger effect = lower value
Binary call on cell count with cut-off 6000: strictly below means 1.0, and equality or higher means 0.0.

c1cc2c3c(c1)c1c(n3CCNC2)CCCC1    0.0
N=C(N)c1ccc(N2CCN(C3CCN(CC(=O)O)CC3)CC2)cc1    0.0
C[C@@H]1C[C@H]2O[C@@H]2/C=C\C=C\C(=O)Cc2c(Cl)c(O)cc(O)c2C(=O)O1    1.0
COc1nc(N)nc2c1ncn2C1OC(CO)C(O)C1O (configuration not stated)    0.0
CC(C)[C@H](O)C(=O)O    1.0
CCN(CC)Cc1ccc2cc(COC(=O)Nc3ccc(C(=O)NO)cc3)ccc2c1    1.0

Please determine if `CC(C)=CCC/C(C)=C/CC/C(C)=C/CSc1ccccc1C(N)=O` is below 6000 in terms of cell count.
1.0
